Exercise: for every item that follows, state its recorded Kd.

Assay TRIM21 protein (Homo sapiens (Human), UniProt P19474), sample CC(C)c1ccccc1-c1ccc(C(=O)N(C)CC2CCCCC2)c(S(C)(=O)=O)c1 [Compound 46] , Kd read: 0.1 to 1 µM

Assay TRIM21 protein (Homo sapiens (Human), UniProt P19474), sample COc1ccccc1-c1ccc(C(=O)N(C)[C@H](C)C2CCCC2)c(S(C)(=O)=O)c1 [Compound 33] , Kd read: 1 to 10 µM

Assay TRIM21 protein (Homo sapiens (Human), UniProt P19474), sample COc1ccccc1-c1ccc(C(=O)N(C)CC2CCOCC2)c(S(C)(=O)=O)c1 [Compound 34] , Kd read: 0.1 to 1 µM

Assay TRIM21 protein (Homo sapiens (Human), UniProt P19474), sample COc1ccccc1-c1ccc(C(=O)N(C)Cc2cc[nH]c(=O)c2)c(S(C)(=O)=O)c1 [Compound 28] , Kd read: 0.01 to 0.1 µM

Assay TRIM21 protein (Homo sapiens (Human), UniProt P19474), sample CSc1ccccc1-c1ccc(C(=O)N(C)CC2CN(C(C)=O)C2)c(S(C)(=O)=O)c1 [Compound 13] , Kd read: 0.1 to 1 µM

Assay TRIM21 protein (Homo sapiens (Human), UniProt P19474), sample CSc1ccccc1-c1ccc(C(=O)N(C)CC2CCCCC2)c(S(C)(=O)=O)c1 [Compound 2] , Kd read: 0.1 to 1 µM

Assay TRIM21 protein (Homo sapiens (Human), UniProt P19474), sample CN(CC1CCCCC1)C(=O)c1ccc(-c2ccc(F)cc2C2CC2)cc1S(C)(=O)=O [Compound 41] , Kd read: 0.01 to 0.1 µM

Assay TRIM21 protein (Homo sapiens (Human), UniProt P19474), sample COc1cnccc1-c1ccc(C(=O)N(C)CC2CCCCC2)c(S(C)(=O)=O)c1 [Compound 43] , Kd read: 1 to 10 µM

* * *

pKd: −log10 of the molar value.
measured_endpoint: pKd

Assay TRIM21 protein (Homo sapiens (Human), UniProt P19474), sample COc1cc(CN(C)C(=O)c2ccc(-c3ccccc3OC)cc2S(C)(=O)=O)ccn1 [Compound 27] , pKd read: 7.00 to 8.00

Assay TRIM21 protein (Homo sapiens (Human), UniProt P19474), sample CSc1ccccc1-c1ccc(C(=O)N(C)Cc2cnoc2)c(S(C)(=O)=O)c1 [Compound 7] , pKd read: 6.00 to 7.00

Assay TRIM21 protein (Homo sapiens (Human), UniProt P19474), sample CCC(CC)CN(C)C(=O)c1ccc(-c2ccccc2SC)cc1S(C)(=O)=O [Compound 10] , pKd read: 6.00 to 7.00

Assay TRIM21 protein (Homo sapiens (Human), UniProt P19474), sample CSc1ccccc1-c1ccc(C(=O)N(C)[C@H](C)C2CCCC2)c(S(C)(=O)=O)c1 [Compound 20] , pKd read: 6.00 to 7.00

Measured values drawn from patent US20250388560A1 for this set.
